The values you see were collected from PubChem BioAssay.

Below, each of the compounds is paired with its reported composite z-score value.
tested_on: Torsin-1A (Homo sapiens)
assay_details: small-molecule binders of mutant TOR1A in lysate, primary screen, cell lysate, small-molecule microarray, COS7 lysate, 635/667 nm fluorescence (AID 1150);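 further: score pools 667 nm emission and signal to noise measuring lysate protein binding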
run_parameters: COS7 hTOR1A mutant lysate, 635 nm fluorescence, higher = more signal
Quick one: just the number, no unit, thanks!

INSERT INTO results (compound, numeric_value) VALUES
  ('Cc1ccc(S[C@]2(C(=O)NC3CC3)CC(=O)N(Cc3ccccc3)[C@@H]2c2ccc(CO)cc2I)cc1', -1.63),
  ('CC(C)C(CO)N1C(=O)[C@@H]2C3C(=O)OCCC/C=C\[C@H]3OC23C=CCN(CCN2CCOCC2)C(=O)[C@@H]13 (stereo partly drawn)', -0.184),
  ('CN1C(=O)C2C=CC(C(O)c3ccc([N+](=O)[O-])cc3)N(N3CCCCC3)C2C1=O (stereo not drawn)', 0.603),
  ('CC#CC(=O)Oc1ccccc1C=CC(=O)OCC', 0.222),
  ('C=C(C)[C@@H]1CC=C(C(O)C2C=CC3C(=O)N(C)C(=O)C3N2Nc2ccccc2)CC1 (stereo partly drawn)', 0.385),
  ('Cc1ccc([C@@H]2C[C@@H](Sc3ccccc3)[C@H](C(=O)O)CN2S(=O)(=O)c2ccc(C)cc2)cc1', 0.244);

input: Look at this compound and give its reported composite z-score. C=CC[C@]1(C(=O)NCc2ccccc2)N=C(c2ccc(OCCCO)cc2)O[C@H]1c1ccccc1N=[N+]=[N-]
output: 0.787

input: Any idea what its composite z-score is? The compound is COc1ccc([Si](C)(C)[C@@H]2[C@@H](CC(=O)N3CCC[C@H]3CO)O[C@]3(C(=O)N(c4ccccc4)c4ccccc43)[C@H]2C)cc1
output: 0.466

----------
assay_details: CREB reporter modulators without forskolin, primary screen, cell-based, PC12, CRE-LacZ reporter, unstimulated (AID 1145)
run_parameters: no forskolin, luminescence, 4.5 h, higher = more signal, called active from +8 up or from −8 down
In this section, each of the molecules is paired with its reported z-score.
Please reply with the value in numeric form only.

INSERT INTO measurements (molecule, numeric_value) VALUES
  ('C=CCOC(=O)[C@H]1[C@@H]2C(=O)O[C@@H](c3ccccc3)[C@@H](c3ccccc3)N2[C@@H](c2ccc(OCCOC(=O)[C@H]3C[C@H]4C(=O)N[C@@H](CCCCNC(C)=O)C(=O)N4[C@H]3c3cccc(OCCO)c3)cc2)[C@]12C(=O)Nc1ccccc12', -1.08),
  ('CCC(CC)C(O)C1C=CC2C(=O)NC(=O)C2N1Nc1ccccn1 (stereo not drawn)', 0.246),
  ('COc1ccc(CCNC(=O)[C@@H]2c3ccccc3C(=O)N(Cc3ccccc3Cl)[C@H]2c2ccc(CO)cc2)cc1', 0.701);

input: Quick one: z-score for C=CCOC(=O)[C@H]1[C@@H]2C(=O)O[C@@H](c3ccccc3)[C@@H](c3ccccc3)N2[C@@H](c2ccc(OCCOC(=O)[C@@H]3C[C@@H]4C(=O)N[C@@H](CC(C)C)C(=O)N4[C@@H]3c3ccc(O)cc3)cc2)[C@]12C(=O)Nc1ccccc12 ?
output: -0.541

input: If you can, please state the reported z-score value of COC(=O)[C@@]1(Cc2ccc(OC)cc2)[C@H]2c3cc(C(=O)N(C)C)n(C)c3C[C@H]2CN1C(=O)c1ccccc1 .
output: 0.0041

input: Looking for the measured z-score of CCOC(=O)C1=C[C@@H](C(C)(C)C)N(S(=O)(=O)c2ccc(C)cc2)[C@H]1c1ccc(F)cc1 , can you help?
output: 0.0423

input: Suppose we examine the molecule COCCOC(=O)N1C(=O)[C@@]2(c3ccccc31)[C@H](c1ccc(O)cc1)N1[C@H](c3ccccc3)[C@H](c3ccccc3)OC(=O)[C@H]1[C@@H]2C(=O)Nc1nc2ccccc2s1 ; what z-score value has been reported?
output: -0.467

input: Value lookup for z-score; key = COc1ccc(C(O)C2C=CC3C(=O)N(Cc4ccccc4)C(=O)C3N2n2cnnc2)cc1OCc1ccccc1 (stereo not drawn)
output: -0.424

input: Recorded z-score of COCCOC(=O)N1C(=O)[C@@]2(c3cc(C#CCNC(N)=O)ccc31)[C@H](C(=O)Nc1nc3ccccc3s1)[C@H]1C(=O)O[C@H](c3ccccc3)[C@H](c3ccccc3)N1[C@@H]2c1ccc(OCCO)cc1 , please.
output: -0.874

input: For CCC(CC)C(O)C1C=CC2C(=O)NC(=O)C2N1Nc1ccc(Cl)cc1Cl (stereo not drawn) , what is its reported z-score?
output: 0.243

input: I would be grateful if you could share the reported z-score for Cc1ccc(S[C@]2(C(=O)NCCCN(C)C)CC(=O)N(Cc3cc(C(F)(F)F)cc(C(F)(F)F)c3)[C@@H]2c2ccc(CO)cc2I)cc1 .
output: -0.994

input: // returns reported z-score for input C[N+](C)(C)CCCCNC(=O)[C@@H]1C[C@@H]2C(=O)N[C@@H](Cc3ccccc3)C(=O)N2[C@@H]1c1cccc(OCCO)c1
output: -0.26

input: Requested read-out: z-score. Entry: CCCC=C(CCC)[C@@H](NC(=O)c1cccs1)c1ccc(C(F)(F)F)cc1
output: -0.761
